Data origin: ChEMBL document CHEMBL1201862

Record form. Attribute: GI50. Fill in for each entry.
- System: T47D
- ASSAY_PROCEDURE: NCI tumour cell line growth inhibition, 48 h
Calls of active or inactive are those of the source. Rule as the data show it: active = GI50 up to about 1.1 µM and inactive = higher.

Query: Looking for the measured GI50 of Cc1cc(O)c2c(c1O)C(=O)c1cccc(O)c1C2=O , can you help?
Reply: > 100 µM (inactive)

Query: Looking for the measured GI50 of C=C(C)[C@@H]1CCc2c(c(C)cc(O)c(=O)c2O)C1 , can you help?
Reply: 3.8 µM (inactive)

Query: Looking for the measured GI50 of CCOC(=O)N1CCN(Cc2cc(=O)n3ccc(C)cc3n2)CC1 , can you help?
Reply: > 100 µM (inactive)

Query: Looking for the measured GI50 of CNc1ncnc2c1ncn2C1C=CC(COS(N)(=O)=O)C1 (centres undefined) , can you help?
Reply: > 100 µM (inactive)

Query: Looking for the measured GI50 of CC(C)(C)c1ccc2c(c1)CNCCNCc1cc(C(C)(C)C)ccc1OCC1(CO2)COc2ccc(C(C)(C)C)cc2CNCCNCc2cc(C(C)(C)C)ccc2OC1 , can you help?
Reply: 1.91 µM (inactive)

Query: Looking for the measured GI50 of CC(=O)NCCc1c[nH]c2ccc(Cl)cc12 , can you help?
Reply: > 100 µM (inactive)

Query: Looking for the measured GI50 of COC(=O)C1=CC2CCCC1(O)C(C(C)=O)C2 (centres undefined) , can you help?
Reply: 27.4 µM (inactive)

Query: Looking for the measured GI50 of CCCCCC(=O)NC(=S)Nc1nnn[nH]1 , can you help?
Reply: > 100 µM (inactive)

Query: Looking for the measured GI50 of CCOC(=O)CCC(C(=O)OCC)n1nc2ccc(Nc3c(C)[n+]([O-])c4cc(F)c(OCC)cc4[n+]3[O-])cc2n1 (centres undefined) , can you help?
Reply: 66.1 µM (inactive)

Query: Looking for the measured GI50 of Cc1ccc(/C=C2\N=C(N3CCCCC3)NC2=O)cc1 , can you help?
Reply: 58.1 µM (inactive)

Query: Looking for the measured GI50 of Cc1ccc([S+]([O-])C[C@](NC(=O)OCc2ccccc2)(Sc2ccccc2)C(F)F)cc1 (some centres undefined) , can you help?
Reply: 10.5 µM (inactive)

Query: Looking for the measured GI50 of Cc1cc(NS(=O)(=O)c2ccc(NC(=O)c3ccc4nc5ccccc5c(Nc5ccc(S(=O)(=O)N=C(N)N)cc5)c4c3)cc2)no1 , can you help?
Reply: 14.6 µM (inactive)

Query: Looking for the measured GI50 of O=C1C/C(=C\c2ccccc2)C(=O)c2ccccc2N1 , can you help?
Reply: 28.2 µM (inactive)

Query: Looking for the measured GI50 of Cn1c(=O)c2c(nc3sc4nc5ccccc5nc4n32)n(C)c1=O , can you help?
Reply: > 100 µM (inactive)

Query: Looking for the measured GI50 of Oc1ccc2c3c1OC1c4[nH]ncc4C[C@H]4[C@@H](C2)N(CC2CC2)CC[C@]314 (some centres undefined) , can you help?
Reply: > 100 µM (inactive)

Query: Looking for the measured GI50 of COc1cccc(-c2ccc3c4c2O[C@H]2c5[nH]c6ccccc6c5C[C@@]5(O)[C@@H](C3)N(CC3CC3)CC[C@]425)c1 , can you help?
Reply: 2.1 µM (inactive)

Query: Looking for the measured GI50 of CCOC(=O)/C=C/C1=C(Br)[C@@]2(C)CC[C@@H]3c4ccc(O)cc4CC[C@H]3[C@@H]2C1 , can you help?
Reply: 4.86 µM (inactive)

Query: Looking for the measured GI50 of C[C@@H]1C[C@](O)([C@@H](C)Cl)C(=O)O[C@@H]2CCN3CC=C(COC(=O)[C@]1(C)O)[C@H]23 , can you help?
Reply: > 100 µM (inactive)

Query: Looking for the measured GI50 of N/C(=N\c1ccc(Cl)cc1)NS(=O)(=O)c1c(C(F)(F)F)cccc1C(F)(F)F , can you help?
Reply: 12.5 µM (inactive)

* * *

- Tested on: HCT-116
- ASSAY_PROCEDURE: NCI tumour cell line growth inhibition, 48 h
Active and inactive are the calls of the source. Cut-off read from the data, not from the text of the source: active = GI50 up to about 1.1 µM and inactive = higher.
MEASURED_PARAMETER: GI50

Query: Looking for the measured GI50 of CCCC(=O)c1c(NOC2OC(COC(C)=O)C(OC(C)=O)C(OC(C)=O)C2OC(C)=O)nc(OC)n(C)c1=O (stereo unspecified) , can you help?
Reply: > 100 µM (inactive)

Query: Looking for the measured GI50 of CC(=O)/N=C1\C=C(NC(C)=O)C(=O)c2ccccc21 , can you help?
Reply: 1.49 µM (inactive)

Query: Looking for the measured GI50 of CC12CCC(=O)N1c1cncnc1N2 (stereo unspecified) , can you help?
Reply: > 10 µM (inactive)

Query: Looking for the measured GI50 of N#CC(C(=O)CCC(=O)Nc1ccc(Cl)cc1)c1ccccc1Cl (stereo unspecified) , can you help?
Reply: 61.1 µM (inactive)

Query: Looking for the measured GI50 of CC1(C)C2C/C(=C\c3ccccc3)C(=O)C1C2 (stereo unspecified) , can you help?
Reply: 90.4 µM (inactive)

Query: Looking for the measured GI50 of CC(=O)/N=S(/NC(=O)c1ccc(C)cc1)C(Cl)(Cl)Cl (stereo unspecified) , can you help?
Reply: 31 µM (inactive)

* * *

- System: TK-10
- ASSAY_PROCEDURE: NCI tumour cell line growth inhibition, 48 h
Activity calls are given as the source filed them. Cut-off read from the data, not from the text of the source: active = GI50 up to about 1.1 µM and inactive = higher.
Use one of these outcomes when replying: active, inactive

Query: Name the outcome recorded for Cc1ccc2c(c1)-c1nc(N)c(C#N)c(-c3ccccc3)c1CCS2(=O)=O in the assay.
Reply: inactive

Query: Name the outcome recorded for CC(=O)ON(C(C)=O)C1C(COC(c2ccccc2)(c2ccccc2)c2ccccc2)OC2OC3(CCCC3)OC21 (stereo not given) in the assay.
Reply: inactive

Query: Name the outcome recorded for CCSc1nc(N)c2c(-c3ccccc3)c3c(nc2n1)CCC3 in the assay.
Reply: inactive

Query: Name the outcome recorded for Cc1ccc2ccc(-c3ccccc3)c3c2c1C(=O)c1ccccc1C3=O in the assay.
Reply: inactive

Query: Name the outcome recorded for Cc1nc2sc(CCl)nn2c(=O)c1Cl in the assay.
Reply: inactive

Query: Name the outcome recorded for C=CCOc1ccc(C2C(C(=O)OCC)C(=O)CC(C)(O)C2C(=O)OCC)cc1OC (stereo not given) in the assay.
Reply: inactive

Query: Name the outcome recorded for COc1ccc(N2C(=O)C3c4[nH]c5ccccc5c4C4CCCCC4C3C2=O)cc1 (stereo not given) in the assay.
Reply: inactive

Query: Name the outcome recorded for O=c1[nH]/c(=C/c2ccc(OCc3ccccc3)cn2)c(=O)[nH]/c1=C/c1ccc(O)cc1 in the assay.
Reply: active

Query: Name the outcome recorded for CC(C)CC(C#CCCOC(=O)c1ccccc1)OC(=O)c1ccccc1 (stereo not given) in the assay.
Reply: inactive

Query: Name the outcome recorded for O=C(COc1ccc(OCC(=O)N2C(=O)CN(c3ccccc3)C2=S)cc1)N1C(=O)CN(c2ccccc2)C1=S in the assay.
Reply: inactive

Query: Name the outcome recorded for N#Cc1c(N)c2c(c(-c3ccccc3)c1-c1ccccc1)C(=O)N(NC(=O)c1ccccc1)C2=O in the assay.
Reply: inactive

Query: Name the outcome recorded for C[C@]12CC[C@H]3[C@@H](CCC4=CC(=O)CC[C@@]43C)[C@]1(O)CC[C@]2(O)C(=O)CO in the assay.
Reply: inactive

Query: Name the outcome recorded for Cc1ccc(SC2C(C)(C)N(C(C)C)P2(=O)N(C(C)C)C(C)C)cc1 (stereo not given) in the assay.
Reply: inactive

Query: Name the outcome recorded for Cc1cn(C2CC(N=[N+]=[N-])C(CO[Si](C)(C)C(C)(C)C)O2)c(=O)[nH]c1=O (stereo not given) in the assay.
Reply: inactive

Query: Name the outcome recorded for COC(=O)/C(=N\NC(=S)NN)C(C(=O)OC)C(=O)C(=O)Nc1cccc(C(F)(F)F)c1 (stereo not given) in the assay.
Reply: inactive

Query: Name the outcome recorded for O=C1c2ccccc2C(=O)c2[nH]cnc21 in the assay.
Reply: inactive

Query: Name the outcome recorded for O=C1CC(=O)N(c2ccccc2)N1/C(=C/c1ccccc1)c1ccccc1 in the assay.
Reply: inactive

Query: Name the outcome recorded for COc1ccc(-c2cc(O)c3cc(OC)ccc3n2)cc1 in the assay.
Reply: inactive

Query: Name the outcome recorded for COc1ccc2[nH]c3c(c2c1)COc1ccccc1C3=O in the assay.
Reply: inactive

Query: Name the outcome recorded for [N-]=[N+]=Nc1c(Cc2ccccc2)c(Cl)nc2ccccc12 in the assay.
Reply: inactive

Query: Name the outcome recorded for Cc1nc(C(N)=S)sc1C(=O)CC(=O)C(=O)Nc1ccc(Br)cc1 in the assay.
Reply: inactive

Query: Name the outcome recorded for O=C(Cc1ccccc1F)NC1=C(Cl)C(=O)c2ccccc2C1=O in the assay.
Reply: inactive

Query: Name the outcome recorded for Cc1cc(N(CCC#N)CCC#N)ccc1C(/N=N/c1ccc([N+](=O)[O-])cc1)=N\NC(=O)c1cc(Cl)ccc1C(=O)c1ccccc1 in the assay.
Reply: inactive

Query: Name the outcome recorded for CCOC(=O)c1c(-c2ccccc2)c(OC)cn1C in the assay.
Reply: inactive

Query: Name the outcome recorded for Cc1oc2c(cc(O)c3cc(O)ccc32)c2cccc1-2 in the assay.
Reply: inactive

Query: Name the outcome recorded for O=S(=O)(/C=C/C=C/S(=O)(=O)c1ccccc1)c1ccccc1 in the assay.
Reply: inactive

Query: Name the outcome recorded for CCCCCCCCCC(=O)CC(=O)c1c(O)cc(O)cc1O in the assay.
Reply: inactive

Query: Name the outcome recorded for O=c1[nH]cnc2c1nnn2C1C=C(CO)C(O)C1O (stereo not given) in the assay.
Reply: inactive

Query: Name the outcome recorded for COc1cc(C)cc2c(-c3c(O)cc(O)c4c3C[C@H](C)N[C@H]4C)cc(-c3cc(-c4c(O)cc(O)c5c4C[C@H](C)N[C@H]5C)c4cc(C)cc(OC)c4c3O)c(O)c12 in the assay.
Reply: inactive

Query: Name the outcome recorded for Oc1ccc(C(c2ccc(O)cc2)c2ccc(O)cc2)cc1 in the assay.
Reply: inactive

Query: Name the outcome recorded for CCC(C)C(NC(=O)c1c2ccccc2nc2ccccc12)C(=O)O (stereo not given) in the assay.
Reply: inactive

Query: Name the outcome recorded for C/C(=N/N)c1sc(-c2nc(C)c(/C(C)=N\N)s2)nc1C in the assay.
Reply: inactive

Query: Name the outcome recorded for O=C(Nc1ccccc1)N(CCCCN(Cc1ccccc1)C(=O)Nc1ccccc1)Cc1ccccc1 in the assay.
Reply: inactive

Query: Name the outcome recorded for Nc1nn2c(nc(N)c3c(N)n[nH]c32)c1/N=N\c1ccc(Br)cc1 in the assay.
Reply: inactive

Query: Name the outcome recorded for CO[C@]12C[C@@H](CNC(=O)c3cc(Br)c[nH]3)O[C@H]1NC(=O)N2 in the assay.
Reply: inactive

Query: Name the outcome recorded for COc1cc([C@H]2CC(=O)C[C@H](c3cc(OC)c(OC)c(OC)c3)C23C(=O)c2ccccc2C3=O)cc(OC)c1OC in the assay.
Reply: inactive

Query: Name the outcome recorded for N#Cc1c(N)c2c(c(-c3ccccc3)c1-c1ccccc1)C(=O)N(N)C2=O in the assay.
Reply: inactive

Query: Name the outcome recorded for COc1cccc2ccc3c(c12)C(=O)OC31CCc2c(C)cccc21 (stereo not given) in the assay.
Reply: inactive

Query: Name the outcome recorded for CCCCCCCC/C=C1\CCC(CN(C)C)C1=O (stereo not given) in the assay.
Reply: inactive

Query: Name the outcome recorded for COc1cc(/C=C2/SC(c3ccccc3)N(Cc3ccccc3)C2=O)cc(OC)c1OC (stereo not given) in the assay.
Reply: inactive
